# test: Detection of encapsulation efficiency, drug loading concentration and total RNA concentration (RiboGreen)
# Assay type: physicochemical
# measurement_context: LNP formulation prepared from the cationic lipid

molecule | Drug loading concentration
CCCCCCCCCCOC(=O)CCCCCN(CCO)CCCN(CCO)CCCCCC(=O)OCCC(CCCCCC)CCCCCC [YK-417] | 25.02 µg/mL
CCCCCCCCCCCOC(=O)CCCCCN(CCO)CCCCCCCC(=O)OC(CCCCCCCC)CCCCCCCC [SM-102, reference compound] | 26.53 µg/mL
CCCCCCCCCCCOC(=O)CCCN(CCO)CCN(CCO)CCCCCC(=O)OCC(CCCCCCCC)CCCCCCCC [YK-409] | 34.14 µg/mL
CCCCCCCCCCCOC(=O)CCCN(CCO)CCN(CCO)CCCCCCOC(=O)CC(CCCCCC)CCCCCC [YK-406] | 30.19 µg/mL
CCCCCCCCC(CCCCCCCC)OC(=O)CCCCCN(CCO)CCCCN(CCO)CCCCCC(=O)OC(CCCCCCCC)CCCCCCCC [YK-420] | 35.87 µg/mL
CCCCCCCCC(CCCCCCCC)OC(=O)CCCCCN(CCO)CCN(CCO)CCCCCC(=O)OC(CCCCCCCC)CCCCCCCC [YK-401] | 37.16 µg/mL
CCCCCCCCC(CCCCCCCC)OC(=O)CCCCCN(CCO)CCCN(CCO)CCCCCC(=O)OC(CCCCCCCC)CCCCCCCC [YK-419] | 30.40 µg/mL
CCCCCCCCC(CCCCCCCC)COC(=O)CCCCCN(CCCO)CCCN(CCCO)CCCCCC(=O)OCC(CCCCCCCC)CCCCCCCC [YK-423] | 37.47 µg/mL
CCCCCCCCC(CCCCCCCC)COC(=O)CCCCCN(CCCO)CCCCN(CCCO)CCCCCC(=O)OCC(CCCCCCCC)CCCCCCCC [YK-424] | 32.84 µg/mL
CCCCCCCCC(CCCCCCCC)COC(=O)CCCCCN(CCCO)CCN(CCCO)CCCCCC(=O)OCC(CCCCCCCC)CCCCCCCC [YK-422] | 45.05 µg/mL
CCCCCCCCC(CCCCCCCC)OC(=O)CCCCCCCN(CCO)CCN(CCO)CCCCCCCC(=O)OC(CCCCCCCC)CCCCCCCC [YK-403] | 34.21 µg/mL
CCCCCCCCCCOC(=O)CCCN(CCO)CCN(CCO)CCCCCC(=O)OC(CCCCCCCC)CCCCCCCC [YK-405] | 33.42 µg/mL
CCCCCCCCCCOC(=O)CCCCCN(CCO)CCN(CCO)CCCCCC(=O)OCC(CCCCCCCC)CCCCCCCC [YK-410] | 29.48 µg/mL
CCCCCCCCCCCOC(=O)CCCN(CCO)CCN(CCO)CCCCCC(=O)OC(CCCCCCCC)CCCCCCCC [YK-407] | 35.67 µg/mL
CCCCCCCCCCOC(=O)CCCN(CCO)CCN(CCO)CCCC(=O)OC(CCCCCCCC)CCCCCCCC [YK-408] | 45.42 µg/mL
CCCCCCCCCCCCC(O)CN(C)CCCCCC(=O)OCC(CCCCCC)CCCCCCCC (centres unmarked) [HHMA, reference compound] | 32.65 µg/mL
CCCCCC(CC)OC(=O)CCCCCCCCN(CCO)CCN(CCO)CCCCCCCCC(=O)OC(CC)CCCCC (centres unmarked) [YK-404] | 28.45 µg/mL
CCCCCCCCCCOC(=O)CCCN(CCO)CCCCN(CCO)CCCCCC(=O)OC(CCCCCCCC)CCCCCCCC [YK-421] | 33.93 µg/mL
CCCCCCCCC(CCCCCC)C(=O)OCCCCCCN(CCCCO)CCCCCCOC(=O)C(CCCCCC)CCCCCCCC (centres unmarked) [ALC-0315, reference compound] | 26.88 µg/mL
CCCCCCCCCCOC(=O)CCCCCN(CCO)CCN(CCO)CCCCCC(=O)OCCC(CCCCCC)CCCCCC [YK-411] | 36.72 µg/mL
CCCCCCCCC(CCCCCCCC)C(=O)OCCCCCCN(CCO)CCN(CCO)CCCCCCOC(=O)C(CCCCCCCC)CCCCCCCC [YK-402] | 37.67 µg/mL
CCCCCCCCCCCOC(=O)CCCN(CCO)CCCN(CCO)CCCCCC(=O)OC(CCCCCCCC)CCCCCCCC [YK-413] | 23.63 µg/mL
CCCCCCCCCCOC(=O)CCCN(CCO)CCCCCC(=O)OCC(CCCCCCCC)CCCCCCCC [YK-009, reference compound] | 27.52 µg/mL
CCCCCCCCCCOC(=O)CCCCCN(CCO)CCCN(CCO)CCCCCC(=O)OCC(CCCCCCCC)CCCCCCCC [YK-416] | 25.16 µg/mL
CCCCCCCCCCCOC(=O)CCCN(CCO)CCCN(CCO)CCCCCC(=O)OCC(CCCCCCCC)CCCCCCCC [YK-415] | 31.08 µg/mL
CCCCCCCCCCOC(=O)CCCN(CCO)CCCN(CCO)CCCCCCOC(=O)CC(CCCCCC)CCCCCC [YK-418] | 24.96 µg/mL
